system: 876862-298-R-J1-PDC complex spheroids, viability % test/control; experiment: Anticancer human tumor 876862-298-R-J1-PDC patient-derived endometrial carcinoma cell line growth inhibition [CLK]; settings: second compound 1 µM; first compound 0.00316 µM; stronger effect = lower value
Assign viability, T/C to each entry below.

What the record says about CCN1CCN(Cc2ccc(Nc3ncc(F)c(-c4cc(F)c5nc(C)n(C(C)C)c5c4)n3)nc2)CC1 + CN1CCN(c2cc(C(=O)Nc3cc4cc(-c5cnn(C)c5)ccc4cn3)ccn2)CC1 : viability, T/C is 0.94%

What the record says about Cn1ncnc1[C@H]1c2n[nH]c(=O)c3cc(F)cc(c23)N[C@@H]1c1ccc(F)cc1 + CN1CCN(c2cc(C(=O)Nc3cc4cc(-c5cnn(C)c5)ccc4cn3)ccn2)CC1 : viability, T/C is 1%

What the record says about CCN1CCN(Cc2ccc(Nc3ncc(F)c(-c4cc(F)c5nc(C)n(C(C)C)c5c4)n3)nc2)CC1 + CNC(=O)c1ccc(Nc2nc(OC3CCCC3)c3c(-c4ccc5nc(C)oc5c4)c[nH]c3n2)c(OC)c1 : viability, T/C is 34.7%

====

Assign IC50 to each entry below.
test system: 876862-298-R-J1-PDC complex spheroids, viability % test/control; experiment: Anticancer human tumor 876862-298-R-J1-PDC cell line growth inhibition [CLK]; conditions: curve of first compound; second compound 10 µM;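 note: spheroids exposed to drugs for 7 days before readout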

What the record says about COc1c(OCCCN2CCOCC2)ccc2c3n(c(=NC(=O)c4cnc(N)nc4)nc12)CCN3 + CN1CCN(c2cc(C(=O)Nc3cc4cc(-c5cnn(C)c5)ccc4cn3)ccn2)CC1 : IC50 is < 3.16 nM

What the record says about Nc1ccccc1NC(=O)c1ccc(CNC(=O)OCc2cccnc2)cc1 + CNC(=O)c1ccc(Nc2nc(OC3CCCC3)c3c(-c4ccc5nc(C)oc5c4)c[nH]c3n2)c(OC)c1 : IC50 is < 31.6 nM

What the record says about COC1C=CCC(C)C(C)S(=O)(=O)NC(=O)c2ccc3c(c2)N(CC2CCC21)CC1(CCCc2cc(Cl)ccc21)CO3 (stereo not given) + CNC(=O)c1ccc(Nc2nc(OC3CCCC3)c3c(-c4ccc5nc(C)oc5c4)c[nH]c3n2)c(OC)c1 : IC50 is < 31.6 nM

What the record says about O=c1[nH]cc(F)c(=O)[nH]1 + CN1CCN(c2cc(C(=O)Nc3cc4cc(-c5cnn(C)c5)ccc4cn3)ccn2)CC1 : IC50 is < 31.6 nM

What the record says about Cn1ncnc1[C@H]1c2n[nH]c(=O)c3cc(F)cc(c23)N[C@@H]1c1ccc(F)cc1 + CNC(=O)c1ccc(Nc2nc(OC3CCCC3)c3c(-c4ccc5nc(C)oc5c4)c[nH]c3n2)c(OC)c1 : IC50 is < 0.316 nM

What the record says about CCN1CCN(Cc2ccc(Nc3ncc(F)c(-c4cc(F)c5nc(C)n(C(C)C)c5c4)n3)nc2)CC1 + CNC(=O)c1ccc(Nc2nc(OC3CCCC3)c3c(-c4ccc5nc(C)oc5c4)c[nH]c3n2)c(OC)c1 : IC50 is < 3.16 nM

What the record says about CC1COCCN1c1cc(C2(S(C)(=N)=O)CC2)nc(-c2ccnc3[nH]ccc23)n1 (stereo not given) + CN1CCN(c2cc(C(=O)Nc3cc4cc(-c5cnn(C)c5)ccc4cn3)ccn2)CC1 : IC50 is < 31.6 nM

What the record says about CCc1c2c(nc3ccc(O)cc13)-c1cc3c(c(=O)n1C2)COC(=O)[C@]3(O)CC + CNC(=O)c1ccc(Nc2nc(OC3CCCC3)c3c(-c4ccc5nc(C)oc5c4)c[nH]c3n2)c(OC)c1 : IC50 is < 3.16 nM

What the record says about CC(=O)O[C@H]1C(=O)[C@@]2(C)[C@H]([C@H](OC(=O)c3ccccc3)[C@]3(O)C[C@H](OC(=O)[C@H](O)[C@@H](NC(=O)c4ccccc4)c4ccccc4)C(C)=C1C3(C)C)[C@]1(OC(C)=O)CO[C@@H]1C[C@@H]2O + CNC(=O)c1ccc(Nc2nc(OC3CCCC3)c3c(-c4ccc5nc(C)oc5c4)c[nH]c3n2)c(OC)c1 : IC50 is < 31.6 nM

What the record says about CCN1CCN(Cc2ccc(Nc3ncc(F)c(-c4cc(F)c5nc(C)n(C(C)C)c5c4)n3)nc2)CC1 + CN1CCN(c2cc(C(=O)Nc3cc4cc(-c5cnn(C)c5)ccc4cn3)ccn2)CC1 : IC50 is < 3.16 nM

====

system: 876862-298-R-J1-PDC complex spheroids, viability % test/control; test: Anticancer human tumor 876862-298-R-J1-PDC cell line growth inhibition [CLK]; conditions: second compound 0.316 µM; first compound 0.03 µM; stronger effect = lower value;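 note: spheroids exposed to drugs for 7 days before readout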;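 for viability, T/C: 100% = DMSO vehicle control wells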
Assign viability, T/C to each entry below.

What the record says about CC(C)CC(NC(=O)C(Cc1ccccc1)NC(=O)c1cnccn1)B(O)O (stereo unspecified) + CN1CCN(c2cc(C(=O)Nc3cc4cc(-c5cnn(C)c5)ccc4cn3)ccn2)CC1 : viability, T/C is 0.39%

What the record says about NC(=O)C(=Cn1cnc(-c2cc(C(F)(F)F)cc(C(F)(F)F)c2)n1)c1cncnc1 + CN1CCN(c2cc(C(=O)Nc3cc4cc(-c5cnn(C)c5)ccc4cn3)ccn2)CC1 : viability, T/C is 0.32%

What the record says about C=CC(=O)Nc1cc(Nc2nccc(-c3cn(C)c4ccccc34)n2)c(OC)cc1N(C)CCN(C)C + CN1CCN(c2cc(C(=O)Nc3cc4cc(-c5cnn(C)c5)ccc4cn3)ccn2)CC1 : viability, T/C is 4.04%

What the record says about NC(=O)C(=Cn1cnc(-c2cc(C(F)(F)F)cc(C(F)(F)F)c2)n1)c1cncnc1 + CNC(=O)c1ccc(Nc2nc(OC3CCCC3)c3c(-c4ccc5nc(C)oc5c4)c[nH]c3n2)c(OC)c1 : viability, T/C is 24.1%

What the record says about C=CC(=O)Nc1cc(Nc2nccc(-c3cn(C)c4ccccc34)n2)c(OC)cc1N(C)CCN(C)C + CNC(=O)c1ccc(Nc2nc(OC3CCCC3)c3c(-c4ccc5nc(C)oc5c4)c[nH]c3n2)c(OC)c1 : viability, T/C is 41.1%

What the record says about CC(C)CC(NC(=O)C(Cc1ccccc1)NC(=O)c1cnccn1)B(O)O (stereo unspecified) + CNC(=O)c1ccc(Nc2nc(OC3CCCC3)c3c(-c4ccc5nc(C)oc5c4)c[nH]c3n2)c(OC)c1 : viability, T/C is 0.56%

====

tested on: 876862-298-R-J1-PDC complex spheroids, viability % test/control; experiment: Anticancer human tumor 876862-298-R-J1-PDC cell line growth inhibition [CLK]; conditions: second compound 0.1 µM; first compound 10 µM; active means viability on the fitted dose curve at most 10% of control; inactive means the rest;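 note: spheroids exposed to drugs for 7 days before readout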
// classify into active, inactive

IN: Fill in: this test's call for CC1(C)CCC(CN2CCN(c3ccc(C(=O)NS(=O)(=O)c4ccc(NCC5CCOCC5)c([N+](=O)[O-])c4)c(Oc4cnc5[nH]ccc5c4)c3)CC2)=C(c2ccc(Cl)cc2)C1 + CN1CCN(c2cc(C(=O)Nc3cc4cc(-c5cnn(C)c5)ccc4cn3)ccn2)CC1 is ___
OUT: active

IN: Fill in: this test's call for CC(=O)O[C@H]1C(=O)[C@@]2(C)[C@H]([C@H](OC(=O)c3ccccc3)[C@]3(O)C[C@H](OC(=O)[C@H](O)[C@@H](NC(=O)c4ccccc4)c4ccccc4)C(C)=C1C3(C)C)[C@]1(OC(C)=O)CO[C@@H]1C[C@@H]2O + CNC(=O)c1ccc(Nc2nc(OC3CCCC3)c3c(-c4ccc5nc(C)oc5c4)c[nH]c3n2)c(OC)c1 is ___
OUT: inactive

====

system: 876862-298-R-J1-PDC complex spheroids, viability % test/control; test: Anticancer human tumor 876862-298-R-J1-PDC cell line growth inhibition [CLK]; details: second compound 1 µM; first compound 1 µM; active = viability on the fitted dose curve at most 10% of control; inactive = the rest;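 note: spheroids exposed to drugs for 7 days before readout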
// classify into 1.0 = active, 0.0 = inactive

IN: Fill in: this test's call for CC(Nc1ccc2c(c1)OCCn1cc(N3C(=O)OCC3C(F)F)nc1-2)C(N)=O (centres undefined) + CN1CCN(c2cc(C(=O)Nc3cc4cc(-c5cnn(C)c5)ccc4cn3)ccn2)CC1 is ___
OUT: 1.0

IN: Fill in: this test's call for CC(=O)O[C@H]1C(=O)[C@@]2(C)[C@H]([C@H](OC(=O)c3ccccc3)[C@]3(O)C[C@H](OC(=O)[C@H](O)[C@@H](NC(=O)c4ccccc4)c4ccccc4)C(C)=C1C3(C)C)[C@]1(OC(C)=O)CO[C@@H]1C[C@@H]2O + CN1CCN(c2cc(C(=O)Nc3cc4cc(-c5cnn(C)c5)ccc4cn3)ccn2)CC1 is ___
OUT: 1.0

IN: Fill in: this test's call for COC1C=CCC(C)C(C)S(=O)(=O)NC(=O)c2ccc3c(c2)N(CC2CCC21)CC1(CCCc2cc(Cl)ccc21)CO3 (centres undefined) + CN1CCN(c2cc(C(=O)Nc3cc4cc(-c5cnn(C)c5)ccc4cn3)ccn2)CC1 is ___
OUT: 1.0

IN: Fill in: this test's call for CC1COCCN1c1cc(C2(S(C)(=N)=O)CC2)nc(-c2ccnc3[nH]ccc23)n1 (centres undefined) + CN1CCN(c2cc(C(=O)Nc3cc4cc(-c5cnn(C)c5)ccc4cn3)ccn2)CC1 is ___
OUT: 1.0

IN: Fill in: this test's call for COc1ccc([C@@H](O)c2cc(-c3ncnc4cc(N5CCOCC5)ccc34)c(F)cc2Cl)nn1 + CNC(=O)c1ccc(Nc2nc(OC3CCCC3)c3c(-c4ccc5nc(C)oc5c4)c[nH]c3n2)c(OC)c1 is ___
OUT: 0.0

IN: Fill in: this test's call for Nc1ccn(C2OC(CO)C(O)C2(F)F)c(=O)n1 (centres undefined) + CN1CCN(c2cc(C(=O)Nc3cc4cc(-c5cnn(C)c5)ccc4cn3)ccn2)CC1 is ___
OUT: 1.0

IN: Fill in: this test's call for C#Cc1c(F)ccc2cc(O)cc(-c3ncc4c(N5CC6CCC(C5)N6)nc(OCC56CCCN5CC(F)C6)nc4c3F)c12 (centres undefined) + CN1CCN(c2cc(C(=O)Nc3cc4cc(-c5cnn(C)c5)ccc4cn3)ccn2)CC1 is ___
OUT: 1.0

IN: Fill in: this test's call for CC(CO)NC(=O)c1cc(-c2ccc(Cl)cc2)nn(-c2cnn(C)c2)c1=O (centres undefined) + CN1CCN(c2cc(C(=O)Nc3cc4cc(-c5cnn(C)c5)ccc4cn3)ccn2)CC1 is ___
OUT: 1.0

IN: Fill in: this test's call for CC1(C)CCC(CN2CCN(c3ccc(C(=O)NS(=O)(=O)c4ccc(NCC5CCOCC5)c([N+](=O)[O-])c4)c(Oc4cnc5[nH]ccc5c4)c3)CC2)=C(c2ccc(Cl)cc2)C1 + CNC(=O)c1ccc(Nc2nc(OC3CCCC3)c3c(-c4ccc5nc(C)oc5c4)c[nH]c3n2)c(OC)c1 is ___
OUT: 0.0

IN: Fill in: this test's call for CCCS(=O)(=O)Nc1ccc(F)c(C(=O)c2c[nH]c3ncc(-c4ccc(Cl)cc4)cc23)c1F + CNC(=O)c1ccc(Nc2nc(OC3CCCC3)c3c(-c4ccc5nc(C)oc5c4)c[nH]c3n2)c(OC)c1 is ___
OUT: 0.0

IN: Fill in: this test's call for CCN1CCN(Cc2ccc(Nc3ncc(F)c(-c4cc(F)c5nc(C)n(C(C)C)c5c4)n3)nc2)CC1 + CNC(=O)c1ccc(Nc2nc(OC3CCCC3)c3c(-c4ccc5nc(C)oc5c4)c[nH]c3n2)c(OC)c1 is ___
OUT: 0.0

IN: Fill in: this test's call for Nc1ccccc1NC(=O)c1ccc(CNC(=O)OCc2cccnc2)cc1 + CN1CCN(c2cc(C(=O)Nc3cc4cc(-c5cnn(C)c5)ccc4cn3)ccn2)CC1 is ___
OUT: 1.0

IN: Fill in: this test's call for COC1C=CCC(C)C(C)S(=O)(=O)NC(=O)c2ccc3c(c2)N(CC2CCC21)CC1(CCCc2cc(Cl)ccc21)CO3 (centres undefined) + CNC(=O)c1ccc(Nc2nc(OC3CCCC3)c3c(-c4ccc5nc(C)oc5c4)c[nH]c3n2)c(OC)c1 is ___
OUT: 0.0

IN: Fill in: this test's call for C#Cc1c(F)ccc2cc(O)cc(-c3ncc4c(N5CC6CCC(C5)N6)nc(OCC56CCCN5CC(F)C6)nc4c3F)c12 (centres undefined) + CNC(=O)c1ccc(Nc2nc(OC3CCCC3)c3c(-c4ccc5nc(C)oc5c4)c[nH]c3n2)c(OC)c1 is ___
OUT: 0.0

IN: Fill in: this test's call for O=c1[nH]cc(F)c(=O)[nH]1 + CNC(=O)c1ccc(Nc2nc(OC3CCCC3)c3c(-c4ccc5nc(C)oc5c4)c[nH]c3n2)c(OC)c1 is ___
OUT: 0.0

IN: Fill in: this test's call for CC(=O)O[C@H]1C(=O)[C@@]2(C)[C@H]([C@H](OC(=O)c3ccccc3)[C@]3(O)C[C@H](OC(=O)[C@H](O)[C@@H](NC(=O)c4ccccc4)c4ccccc4)C(C)=C1C3(C)C)[C@]1(OC(C)=O)CO[C@@H]1C[C@@H]2O + CNC(=O)c1ccc(Nc2nc(OC3CCCC3)c3c(-c4ccc5nc(C)oc5c4)c[nH]c3n2)c(OC)c1 is ___
OUT: 0.0

IN: Fill in: this test's call for C=C(F)C(=O)N1CCN(c2nc(OCC3CCCN3C)nc3c2CCN(c2cccc4cccc(Cl)c24)C3)CC1CC#N (centres undefined) + CN1CCN(c2cc(C(=O)Nc3cc4cc(-c5cnn(C)c5)ccc4cn3)ccn2)CC1 is ___
OUT: 1.0

IN: Fill in: this test's call for O=C(c1cc(Cc2n[nH]c(=O)c3ccccc23)ccc1F)N1CCN(C(=O)C2CC2)CC1 + CNC(=O)c1ccc(Nc2nc(OC3CCCC3)c3c(-c4ccc5nc(C)oc5c4)c[nH]c3n2)c(OC)c1 is ___
OUT: 0.0

IN: Fill in: this test's call for CC1(C)CCC(CN2CCN(c3ccc(C(=O)NS(=O)(=O)c4ccc(NCC5CCOCC5)c([N+](=O)[O-])c4)c(Oc4cnc5[nH]ccc5c4)c3)CC2)=C(c2ccc(Cl)cc2)C1 + CN1CCN(c2cc(C(=O)Nc3cc4cc(-c5cnn(C)c5)ccc4cn3)ccn2)CC1 is ___
OUT: 1.0
